Taken from patent US8951750B2.

Test: BTB spectrophotometric assay of kinetic constants, substrate phenylmalonate
Type: biochemical
Details: substrate 2-phenylmalonic acid (1); His6-tagged enzyme; BTB method
Recorded metric: Km (mM)
Answer with a number only, understood to be in mM.

The molecule identified as AMDase from Bordetella bronchiseptica: arylmalonate decarboxylase from Bordetella bronchiseptica, SEQ ID NO: 2, Blast entry BAA02419.1 (protein, listed as Bordetella bronchiseptica) MQQASTPTIGMIVPPAAGLVPADGARLYPDLPFIASGLGLGSVTPEGYDAVIESVVDHARRLQKQGAAVVSLMGTSLSFYRGAAFNAALTVAMREATGLPCTTMSTAVLNGLRALGVRRVALATAYIDDVNERLAAFLAEESLVPTGCRSLGITGVEAMARVDTATLVDLCVRAFEAAPDSDGILLSCGGLLTLDAIPEVERRLGVPVVSSSPAGFWDAVRLAGGGAKARPGYGRLFDESLEHHHHHH registered its Km at 10.7
